Measured values drawn from paper PMC11915801 for this set.

# Test system: E. coli K-12 MG1655
# experiment notes: microbe, parasite or virus in culture
# Assay type: cell-based, Escherichia coli
# condition context: Escherichia coli, MG1655; as E2; generation 70; read-out: MIC of MG1655 under the pressure of the same drug, generation 70
Just a reminder that ties go to not fulfilled: only MIC strictly below 20 µg/mL counts as fulfilled.

Use these answered entries as a reference point.
# compound, assigned class
rows = [
    ("O=C(N[C@H](CO)[C@H](O)c1ccc([N+](=O)[O-])cc1)C(Cl)Cl [CHL, Chloramphenicol]", "not fulfilled"),
    ("O=C1CN(/N=C/c2ccc([N+](=O)[O-])o2)C(=O)N1 [NIT, Nitrofurantoin]", "not fulfilled"),
    ("C[C@H]1c2cccc(O)c2C(=O)C2=C(O)[C@]3(O)C(=O)C(C(N)=O)=C(O)[C@@H](N(C)C)[C@@H]3[C@@H](O)[C@@H]21 [DOX, Doxycycline]", "not fulfilled"),
    ("CC1(C)S[C@@H]2[C@H](NC(=O)[C@H](N)c3ccccc3)C(=O)N2[C@H]1C(=O)O [AMP, Ampicillin]", "fulfilled"),
]

// next entry
Given CC[C@H]1OC(=O)[C@H](C)[C@@H](O[C@H]2C[C@@](C)(OC)[C@@H](O)[C@H](C)O2)[C@H](C)[C@@H](O[C@@H]2O[C@H](C)C[C@H](N(C)C)[C@H]2O)[C@](C)(O)C[C@@H](C)CN(C)[C@H](C)[C@@H](O)[C@]1(C)O [AZI, Azithromycin] , is recorded MIC strictly lower than 20 µg/mL? fulfilled
